Source listed as PubChem BioAssay (NCI).

# System: CAKI-1 renal
# method: NCI-60 one-dose screen, 48 h (100 = growth as untreated, 0 = no growth, -100 = all killed)
# run_conditions: 10 µM
This is part of a sample that, as a whole, favours compounds with a hit. Of some 83,000 tested, about 20% had one in any assay.
reported_property: growth (%)
Kindly provide the numeric value in % only, without the unit symbol.

// known answers, use as guide
- smiles: "Fc1ccccc1/C=C(/C1=NCCN1)n1cnc2ccccc21"
  target_desc: "CAKI-1 renal"
  numeric_result: 84.1
- smiles: "C/C(=C(/c1ccc(O)cc1)c1ccc(OCCN2CCCC2)cc1)c1ccc(Cl)cc1"
  target_desc: "CAKI-1 renal"
  numeric_result: 41.9
- smiles: "O=C(NCCNc1cc(-c2cn(-c3ccccc3)nc2-c2cccc(O)c2)ccn1)Nc1ccc(Cl)c(C(F)(F)F)c1"
  target_desc: "CAKI-1 renal"
  numeric_result: 46
- smiles: "O=C(NCCCNc1cc(-c2cn(-c3ccccc3)nc2-c2cccc(O)c2)ccn1)Nc1cc(C(F)(F)F)cc(C(F)(F)F)c1"
  target_desc: "CAKI-1 renal"
  numeric_result: 74.1
- smiles: "N#Cc1ccc(S(=O)(=O)Nc2ccc(-c3cnc(N)[nH]3)cc2)cc1"
  target_desc: "CAKI-1 renal"
  numeric_result: 92.3

Ask: What value of growth has been reported for the following molecule? Cc1cc(C(=O)Nc2ccc(SC#N)cc2)c(C)o1
Reply: 81.7

Ask: And for CCCCCCCCNC(=O)c1ccc(Cn2c(CCCC)nc3c(N)nc4ccccc4c32)cc1 ?
Reply: -1.97

Ask: Do the same for Nc1c(C(=O)c2ccccc2)sc2nc(-c3cnccn3)cc(-c3cccs3)c12 please
Reply: 89.9

Ask: Now give it for COc1cc(-c2noc(C[C@@H](NC(=O)OCc3ccccc3)C(C)C)n2)cc(OC)c1OC too.
Reply: 100

Ask: Now try O=C(Nc1cc(Cl)cc(Cl)c1)Nc1ccc2oc(=O)ccc2c1 .
Reply: 7.57

Ask: Lookup CN(C)c1ccc(/C=N/Nc2nc(N/N=C/c3ccc(N(C)C)cc3)nc(N3CCOCC3)n2)cc1
Reply: 96

Ask: Try N#C/C(=C\c1ccc2ccccc2c1)C(=O)Nc1sc2c(c1C#N)CCC2 next.
Reply: 88.2

Ask: How about this molecule: COc1cc2c3c(n(CCCNC4CCCC4)c(=O)c2cc1OC)-c1cc2c(cc1C3=O)OCO2
Reply: 11.7

Ask: Input CCNC(=O)Oc1ccc(/C(=C(/C)c2ccccc2)c2ccc(OCCN3CCCC3)cc2)cc1
Reply: 79.9

Ask: And C=C(C)C(=O)O[C@H]1C[C@@]2(C)OC(=CC2=O)/C(C)=C\[C@H]2OC(=O)C(=C)[C@H]12 ?
Reply: 5.49

Ask: Query O=S(=O)(Nc1cc(Cl)c(F)c(Cl)c1)c1ccc(-c2cnc(C3CC3)o2)cc1 next
Reply: 12

Ask: One more molecule: CCOC(=O)c1c(NCC(=O)Nc2ccc(Br)cc2)sc2c1CCCC2
Reply: 27

Ask: Entry C#C[C@]1(O)CC[C@H]2[C@@H]3CC=C4c5sc(Nc6cc(OC)ccc6OC)nc5CC[C@]4(C)[C@H]3CC[C@@]21C please
Reply: 28

Ask: Likewise for O=C1[C@H]2Cc3c([nH]c4ccccc34)[C@@H](c3c(Cl)cccc3Cl)N2C(=O)CN1C1CCN(Cc2ccccc2)CC1 ?
Reply: 67.6
